Sequence of the target: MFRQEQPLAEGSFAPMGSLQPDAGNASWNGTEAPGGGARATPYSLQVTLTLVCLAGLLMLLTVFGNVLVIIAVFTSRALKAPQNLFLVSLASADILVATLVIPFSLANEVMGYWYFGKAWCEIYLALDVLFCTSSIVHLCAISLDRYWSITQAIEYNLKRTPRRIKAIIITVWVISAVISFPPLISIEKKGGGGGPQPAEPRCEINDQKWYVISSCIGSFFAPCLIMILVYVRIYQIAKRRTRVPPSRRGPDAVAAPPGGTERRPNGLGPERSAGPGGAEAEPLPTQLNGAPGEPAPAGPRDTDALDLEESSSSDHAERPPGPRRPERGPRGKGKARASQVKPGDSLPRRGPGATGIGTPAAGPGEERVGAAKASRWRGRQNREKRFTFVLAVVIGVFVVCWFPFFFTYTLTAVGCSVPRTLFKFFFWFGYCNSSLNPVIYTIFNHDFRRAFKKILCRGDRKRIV
Catalogue of Ki values
measure-name: Ki

>  <mol-smiles>
O=c1c2sc(Cl)cc2n2c(=S)[nH]nc2n1CC1CC1

>  <reported-result>
> 10 µM

$$$$
>  <mol-smiles>
Cn1cnc([N+](=O)[O-])c1Sc1nnc2n(CC3CC3)c(=O)c3sc(Cl)cc3n12

>  <reported-result>
> 10 µM

$$$$
